B1: FCHO1 (parent)
chain: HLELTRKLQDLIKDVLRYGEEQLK

variants of: B1; assay: protein stability index of a GFP-peptide fusion (GPS, HEK-293T) (PSI 1-6); higher = more stable; details: c terminus: a fixed tail appended;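 also: lentivirally expressed fusions sorted by FACS into six bins by GFP to DsRed ratio, PSI derived from sequencing read proportions per bin multiplied by bin number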
Listed below: protein stability index values for each entry.
// response body must contain only the number

Worked cases, protein stability index given:
HYELTRKLQDLIKDVLRYGEEQLK [L2Y]
2.04
HLELTRKLQPLIKDVLRYGEEQLK [D10P]
1.99

Now take the following variant into account.
Inquiry: protein stability index for HLELPRKLQDLIKDVLRYGEEQLK [T5P] ?
Reply text: 1.94
